Record form. Attribute: IC50. Fill in for each entry.
target: β-lactamase; experiment: β-Lactamase enzyme inhibitory activity assay; details: β-lactamase inhibition assay
Include the unit after the number when you answer.

{"COMPOUND": "O=c1c2cc(O)c(O)cc2oc2cc(O)c([C@@H]3O[C@H](CO)[C@@H](O)[C@H](O)[C@H]3O)c(O)c12 [Mangiferin]", "TARGET_SYSTEM": "β-lactamase", "IC50": "58 µM"}

Please give IC50 for each item listed below.
1. C[C@@H]1O[C@@H](OC[C@H]2O[C@@H](Oc3c(-c4ccc(O)c(O)c4)oc4cc(O)cc(O)c4c3=O)[C@H](O)[C@@H](O)[C@@H]2O)[C@H](O)[C@H](O)[C@H]1O [Rutin]
2. CC1(C)[C@H](C(=O)O)N2C(=O)C[C@H]2S1(=O)=O [sulbactam, reference compound]
3. CC1=C(CO)C(=O)O[C@@H]([C@@H](C)[C@H]2CC[C@H]3[C@@H]4C[C@H]5O[C@]56[C@@H](O)C=CC(=O)[C@]6(C)[C@H]4CC[C@]23C)C1 [Withaferin A]
4. COc1c(O)cc2oc3cc(O)c(CC=C(C)C)c(O)c3c(=O)c2c1CC=C(C)C [Mangostin]

(A)
127 µM
7.24 µM
32.8 µM
136 µM

###

biological target: Recombinant NDM-1 enzyme (Klebsiella pneumoniae, UniProt C7C422); construct: purchased RayBiotech Life 230-00554-500; test: biochemical; details: 1 nM NDM-1, 10 μM ZnSO4, nitrocefin 60 μM, 490 nm, 30°C; compounds 10-100 μM; read-out: IC50 NDM-1 enzyme activity
Sequence (C7C422 29-270 limits assumed): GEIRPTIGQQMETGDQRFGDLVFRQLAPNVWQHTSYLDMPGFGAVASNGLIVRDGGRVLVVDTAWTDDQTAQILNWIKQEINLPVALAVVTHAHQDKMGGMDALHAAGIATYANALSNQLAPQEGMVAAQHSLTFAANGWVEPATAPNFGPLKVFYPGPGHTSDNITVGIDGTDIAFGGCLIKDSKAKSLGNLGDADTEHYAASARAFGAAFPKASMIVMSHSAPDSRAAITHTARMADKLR
ASSAY_READOUT: pIC50
Answers are plain numbers, as −log10 of the molar value.

{"STRUCTURE": "C[C@@H]1O[C@@H](OC[C@H]2O[C@@H](Oc3c(-c4ccc(O)c(O)c4)oc4cc(O)cc(O)c4c3=O)[C@H](O)[C@@H](O)[C@@H]2O)[C@H](O)[C@H](O)[C@H]1O", "pIC50": 4.31}

(Q) Name the reported pIC50 value associated with the compound "COc1c(O)cc2oc3cc(O)c(CC=C(C)C)c(O)c3c(=O)c2c1CC=C(C)C"
(A) 4.01
